Experiment: Solubility in water at pH 7.4 by HPLC-UV method
quantityKind: solubility

>>> reportedresult("Cc1csc(NC(=O)c2cc(Oc3ccc(S(C)(=O)=O)cc3)cc(OC(C)C)c2)n1")
"< 0.1 µg/mL"

----------
Test: AUC (0 to infinity) in Beagle dog at 1 mg/kg, po
Format: ADME, organism-based, Canis lupus familiaris
Parameters: dose 1 mg/kg, route oral, time infinity
Details: plasma
quantityKind: AUC(0-inf) (µM·h)

>>> reportedresult("C[C@@H](CO)Oc1cc(Oc2ccc(S(C)(=O)=O)cc2)cc(C(=O)Nc2nccs2)c1")
4.6

----------
Assay: Volume of distribution at steady state in Sprague-Dawley rat at 1 mg/kg, iv
Assay type: ADME, organism-based
Set-up: dose 1 mg/kg, route intravenous
Conditions: in vivo, read-out: Vdss
quantityKind: Vd (L/kg)

>>> reportedresult("C[C@@H](CO)Oc1cc(Oc2ccc(S(C)(=O)=O)cc2)cc(C(=O)Nc2nccs2)c1")
0.19

----------
Assay: Oral bioavailability in Beagle dog at 1 mg/kg
Assay type: ADME, organism-based, Canis lupus familiaris
Conditions: in vivo
quantityKind: bioavailability

>>> reportedresult("C[C@@H](CO)Oc1cc(Oc2ccc(S(C)(=O)=O)cc2)cc(C(=O)Nc2nccs2)c1")
"57%"

----------
Reported logD values are given for each entry in this list.
Assay: Octanol-water distribution coefficient, log D at pH 7.4 by HPLC-MS analysis
quantityKind: logD

>>> reportedresult("CC(CO)Cc1cc(Oc2ccc(S(C)(=O)=O)cc2)cc(C(=O)Nc2nccs2)c1 (racemic)")
3.4
>>> reportedresult("CS(=O)(=O)c1ccc(Oc2cc(OC3CCOC3)cc(C(=O)Nc3nccs3)c2)cc1 (racemic)")
4.2
>>> reportedresult("CC(CCO)Oc1cc(Oc2ccc(S(C)(=O)=O)cc2)cc(C(=O)Nc2nccs2)c1 (racemic)")
3.4

----------
Assay: Tmax in Beagle dog at 1 mg/kg, po
Assay type: ADME, organism-based, Canis lupus familiaris
Parameters: dose 1 mg/kg, route oral
Details: in vivo
quantityKind: Tmax

>>> reportedresult("C[C@@H](CO)Oc1cc(Oc2ccc(S(C)(=O)=O)cc2)cc(C(=O)Nc2nccs2)c1")
"1.2 h"

----------
Assay: Half life in Sprague-Dawley rat at 1 mg/kg, iv
Type: ADME, organism-based
Design: dose 1 mg/kg, route intravenous
Details: in vivo
quantityKind: half-life (min)

>>> reportedresult("C[C@@H](CO)Oc1cc(Oc2ccc(S(C)(=O)=O)cc2)cc(C(=O)Nc2nccs2)c1")
78

----------
Target: Hexokinase-4 (Homo sapiens, UniProt P35557)
Sequence (P35557 whole entry): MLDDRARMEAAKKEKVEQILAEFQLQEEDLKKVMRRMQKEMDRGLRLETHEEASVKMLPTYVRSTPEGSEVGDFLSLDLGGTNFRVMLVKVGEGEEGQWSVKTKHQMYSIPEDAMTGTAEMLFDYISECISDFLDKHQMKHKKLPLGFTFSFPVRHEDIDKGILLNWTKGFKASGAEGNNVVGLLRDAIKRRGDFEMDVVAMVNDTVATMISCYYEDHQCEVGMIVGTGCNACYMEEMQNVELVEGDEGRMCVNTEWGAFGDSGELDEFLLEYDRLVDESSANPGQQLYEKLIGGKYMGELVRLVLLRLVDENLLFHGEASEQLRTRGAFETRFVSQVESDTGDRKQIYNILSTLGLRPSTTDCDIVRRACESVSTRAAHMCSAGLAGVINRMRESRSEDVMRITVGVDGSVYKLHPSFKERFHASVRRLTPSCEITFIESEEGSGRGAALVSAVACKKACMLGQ
Experiment: Activation of flag-tagged human recombinant liver glucokinase expressed in Escherichia coli by glucose-6-phosphate dehydrogenase coupled continuous spectrophotometric assay in presence of 10 mM glucose
quantityKind: EC50 (nM)

>>> reportedresult("CC(C)C(CO)Oc1cc(Oc2ccc(S(C)(=O)=O)cc2)cc(C(=O)Nc2nccs2)c1 (racemic)")
200
>>> reportedresult("Cn1cnnc1Sc1ccc(N)c(C(=O)Nc2nccs2)c1")
140
>>> reportedresult("CS(=O)(=O)c1ccc(Oc2cc(OC3CCOCC3)cc(C(=O)Nc3nccs3)c2)cc1")
120
>>> reportedresult("CS(=O)(=O)c1ccc(Oc2cc(OC3CCNC3)cc(C(=O)Nc3nccs3)c2)cc1 (racemic)")
4200
>>> reportedresult("CC(CCO)Oc1cc(Oc2ccc(S(C)(=O)=O)cc2)cc(C(=O)Nc2nccs2)c1 (racemic)")
60
>>> reportedresult("CC(CN(C)C)Oc1cc(Oc2ccc(S(C)(=O)=O)cc2)cc(C(=O)Nc2nccs2)c1 (racemic)")
2600
>>> reportedresult("CC(C)Oc1cc(Oc2ccc(S(C)(=O)=O)cc2)cc(C(=O)Nc2nccs2)c1")
60
>>> reportedresult("CN1CCC(Oc2cc(Oc3ccc(S(C)(=O)=O)cc3)cc(C(=O)Nc3nccs3)c2)C1 (racemic)")
7300
>>> reportedresult("CS(=O)(=O)c1ccc(Oc2cc(OC3CCCC3)cc(C(=O)Nc3nccs3)c2)cc1")
240
